Biological target: L7Ae-K (L7-K) (Archaeoglobus fulgidus, UniProt O29494 1-119, K37A)
Sequence (O29494 whole entry K37A): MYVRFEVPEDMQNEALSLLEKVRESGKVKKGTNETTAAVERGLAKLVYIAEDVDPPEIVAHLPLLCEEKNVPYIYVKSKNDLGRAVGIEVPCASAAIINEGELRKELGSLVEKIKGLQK
Assay: SPR
observable: pKd
Kindly note that pKd refers to -log10 of the concentration in mol/L and answer with the value alone.

Can you look up the measured pKd of GGAUCUGGGGUCUGAACGGUGAUGACCCGGAUCC (structured_RNA) [K-loop] for me?
7.59

Sourced from paper PMC4165468
